# test-target: T1, human Siglec15-Fc protein (human)
# T1 construct: In house made; also called recombinant human Siglec15 protein with human IgG1 Fc at the C-terminus
# T1 sequence (chain, as listed by the source limits assumed): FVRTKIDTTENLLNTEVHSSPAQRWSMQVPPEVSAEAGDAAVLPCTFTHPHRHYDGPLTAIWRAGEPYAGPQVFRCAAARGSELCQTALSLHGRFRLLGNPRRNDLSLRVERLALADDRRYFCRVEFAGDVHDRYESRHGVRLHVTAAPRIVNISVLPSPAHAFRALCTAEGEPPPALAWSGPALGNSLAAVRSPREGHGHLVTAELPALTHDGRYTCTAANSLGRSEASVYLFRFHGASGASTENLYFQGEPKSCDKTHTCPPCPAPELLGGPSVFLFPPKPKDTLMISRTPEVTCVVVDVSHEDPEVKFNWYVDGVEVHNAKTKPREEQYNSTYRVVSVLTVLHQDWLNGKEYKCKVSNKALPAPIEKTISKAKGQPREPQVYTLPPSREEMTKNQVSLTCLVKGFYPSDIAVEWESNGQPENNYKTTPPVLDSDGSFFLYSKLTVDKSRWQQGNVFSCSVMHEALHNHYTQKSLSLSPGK
# test-protocol: competitive ELISA: coated human Siglec15-Fc, blocked ligand biotin-labeled human LRRC4C-Fc
reported-metric: IC50 (nM)
Field format: number, assumed nM, no unit text.

Known results for binders:
anti-Siglec15 benchmark (ch5G12) (antibody, human IgG1, kappa, V domains shown, ch5G12 (US 20190202912A1); also called BM; Siglec15-ch5G9) VH: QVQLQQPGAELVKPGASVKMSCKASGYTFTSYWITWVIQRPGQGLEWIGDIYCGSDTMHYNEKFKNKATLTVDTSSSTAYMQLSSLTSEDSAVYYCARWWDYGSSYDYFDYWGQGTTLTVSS VL: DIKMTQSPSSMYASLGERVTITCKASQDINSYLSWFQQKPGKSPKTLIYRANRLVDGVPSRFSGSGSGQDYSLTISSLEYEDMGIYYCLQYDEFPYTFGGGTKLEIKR ... 1.57
B2H2H1H7 (antibody, V domains shown, Mouse monoclonal antibody from hybridoma; also called mouse B2H2H1H7; B2H2H1A7) VH: QVQLQQSGAELVRPGTSVQMSCKAAGYTFTNYWIGWVKQRPGHGLEWVGDIHPGINYTNNNEKFRGKATLTADTSSSTAYMQLRGLTSDDSAIYYCARVDYDYDGSYIMDYWGQGTSVTVSS VL: QIILSQSPALLSASPGEKVTMTCRASSSVSYMYWYQQKPGSSPKPWIYATSNLTSGVPARFSGSGSGTSYSLTISRVEAEDAATYFCQQWNSKPWTFGGGSRLEIR ... 1.04
B2D7H7A3C1 (antibody, V domains shown, Mouse monoclonal antibody from hybridoma; also called mouse B2D7H7A3C1) VH: QVQLQQSGAELVRPGTSVQMSCKAAGYTFTNYWIGWVKQRPGHGLEWVGDIHPGINYTNNNEKFRGKATLTADTSSNTAYMQLRGLTSDDSAIYYCARVDYDYDGSYIMDYWGQGTSVTVSS VL: QIVLSQSPALLSASPGEKVTMTCRASSSVSYMYWYQQKPGSSPKPWIYATSNLTSGVPARFSGSGSGTSYSLTISRVEAEDAATYFCQQWNSKPWTFGGGSKLEIR ... 0.868

Determine from records and report IC50 for B2G12H3E8 (antibody, V domains shown, Mouse monoclonal antibody from hybridoma; also called mouse B2G12H3E8) VH: QVQLKQSGAELVRPGTSVQMSCKAVGYTFTNYWIGWVKQRPGHGLEWVGDIHPGINYTNNNEKFRGKATLTADTSSSTAYMQLRGLTSDDSAIYYCARVDYDYDGSYIMDYWGQGTSVTVSS VL: QIVLSQSPALLSASPGEKVTMTCRASSSVSYMYWYQQKPGSSPKPWIYATSNLTSGVPARFSGSGSGTSYSLTISRVEAEDAATYFCQQWNSKPWTFGGGSKLEIR
0.954
